Each entry below lists one item and its recorded CC50 value.
# experimental.details: Cytotoxicity against mouse RAW264.7 cells
# Type: cell-based

These recorded examples may help you get a feel for the data.
compound: CCN1Cc2c(c3ccc(OC)cc3c3cc(OC)c(OC)cc23)C(O)C1 (stereo not drawn)
value.reported: 0.24 µM
--
compound: CCCN1Cc2c(c3cc(OC)c(OC)cc3c3cc(OC)c(OC)cc23)C(O)C1 (stereo not drawn)
value.reported: > 4 µM
--
compound: COc1cc2c3c(c4cc(OC)c(OC)cc4c2cc1OC)CN(C(C)C)CC3
value.reported: > 4 µM
--
compound: CCN1CCc2c(c3cc(OC)c(OC)cc3c3cc(OC)c(OC)cc23)C1
value.reported: > 4 µM
--
compound: COc1cc2c3c(c4cc(OC)c(OC)cc4c2cc1OC)CN1CCC[C@@H]1C3 [TYLOPHORINE]
value.reported: 1.24 µM

Exam item: Recorded CC50 for COc1cc2c3c(c4cc(OC)c(OC)cc4c2cc1OC)C(O)CN(C(C)C)C3 (stereo not drawn) , please?
Marked response: > 4 µM

Exam item: Recorded CC50 for CCCN1CCc2c(c3cc(OC)c(OC)cc3c3cc(OC)c(OC)cc23)C1 , please?
Marked response: > 4 µM

Exam item: Recorded CC50 for CCN1Cc2c(c3cc(OC)c(OC)cc3c3cc(OC)c(OC)cc23)C(O)C1 (stereo not drawn) , please?
Marked response: > 2 µM

###

# experimental.details: Solubility in DMSO
# Assay type: physicochemical
parameter.measured: solubility (mM)
Quick reminder: number only, in mM, skip the unit.

These recorded examples may help you get a feel for the data.
compound: COc1cc2c3c(c4cc(OC)c(OC)cc4c2cc1OC)CN1CCC[C@@H]1C3 [TYLOPHORINE]
scale.unit: mM
solubility: 10
--
compound: CCN1CCc2c(c3cc(OC)c(OC)cc3c3cc(OC)c(OC)cc23)C1
scale.unit: mM
solubility: 50
--
compound: COc1cc2c3c(c4cc(OC)c(OC)cc4c2cc1OC)CN1CCCCC1C3 (stereo unspecified)
scale.unit: mM
solubility: 12.3
--
compound: CCCN1CCc2c(c3cc(OC)c(OC)cc3c3cc(OC)c(OC)cc23)C1
scale.unit: mM
solubility: 50
--
compound: CCN1Cc2c(c3ccc(OC)cc3c3cc(OC)c(OC)cc23)C(O)C1 (stereo unspecified)
scale.unit: mM
solubility: 60.5

Note: attention shifts to another entry.
Exam item: Recorded solubility for CCCCN1CCc2c(c3cc(OC)c(OC)cc3c3cc(OC)c(OC)cc23)C1 , please?
Marked response: 45

###

Each entry below lists one item and its recorded clearance value.
# experimental.details: Clearance in Sprague-Dawley rat at 3 mg/kg, iv by HPLC-MS method
# Type: ADME, organism-based
# Parameters: dose 3 mg/kg, route intravenous
# measurement.conditions: in vivo
Quick reminder: number only, in mL/min/kg, skip the unit.

These recorded examples may help you get a feel for the data.
molecule: CCN1Cc2c(c3ccc(OC)cc3c3cc(OC)c(OC)cc23)C(O)C1 (stereo not drawn)
parameter.measured: clearance
value.reported: 51.8
//
molecule: CCN1CCc2c(c3cc(OC)c(OC)cc3c3cc(OC)ccc23)C1
parameter.measured: clearance
value.reported: 20

Note: attention shifts to another entry.
Exam item: Recorded clearance for CCCN1CCc2c(c3cc(OC)c(OC)cc3c3cc(OC)c(OC)cc23)C1 , please?
Marked response: 60.8

###

# Tested on: MCF7
# experimental.details: Growth inhibition of human MCF7 cells
# Format: functional
Each entry below lists one item and its recorded GI50 value.
# number then unit; no other words

These recorded examples may help you get a feel for the data.
molecule: COc1cc2c3c(c4cc(OC)c(OC)cc4c2cc1OC)CN1CCC[C@@H]1C3 [TYLOPHORINE]
GI50: 240 nM

molecule: CCCCN1CCc2c(c3cc(OC)c(OC)cc3c3cc(OC)ccc23)C1
GI50: 4730 nM

Exam item: Recorded GI50 for CCCN1Cc2c(c3cc(OC)c(OC)c(OC)c3c3cc(OC)c(OC)cc23)C(O)C1 (stereo not given) , please?
Marked response: 590 nM

###

# experimental.details: Volume of distribution at steady state in Sprague-Dawley rat at 3 mg/kg, iv by HPLC-MS method
# Type: ADME, organism-based
# Parameters: dose 3 mg/kg, route intravenous
# measurement.conditions: in vivo, read-out: Vdss
Each entry below lists one item and its recorded Vd value.
Quick reminder: number only, in L/kg, skip the unit.

compound: CCN1Cc2c(c3ccc(OC)cc3c3cc(OC)c(OC)cc23)C(O)C1 (stereo not drawn)
scale.unit: L/kg
Vd: 2.7
--
compound: CCCN1CCc2c(c3cc(OC)c(OC)cc3c3cc(OC)c(OC)cc23)C1
scale.unit: L/kg
Vd: 9

Note: attention shifts to another entry.
Exam item: Recorded Vd for CCN1CCc2c(c3cc(OC)c(OC)cc3c3cc(OC)ccc23)C1 , please?
Marked response: 5.1

###

# experimental.details: Volume of distribution at steady state in Sprague-Dawley rat at 1.5 mg/kg, iv by HPLC-MS method
# Type: ADME, organism-based
# Design: dose 1.5 mg/kg, route intravenous
# measurement.conditions: in vivo, read-out: Vdss
parameter.measured: Vd (L/kg)
Quick reminder: number only, in L/kg, skip the unit.

Exam item: Recorded Vd for COc1cc2c(cc1OC)[C@@H]1[C@@H](O)[C@@H]3CCC(=O)N3C[C@@H]1c1cc(OC)c(OC)cc1-2 [TYLOPHOVATINE C] , please?
Marked response: 12.4

###

Each entry below lists one item and its recorded GI50 value.
# experimental.details: Growth inhibition of human HONE1 cells
# Assay type: functional
Quick reminder: number only, in nM, skip the unit.

molecule: CCCN1Cc2c(c3cc(OC)c(OC)cc3c3cc(OC)c(OC)cc23)C(O)C1 (configuration not stated)
GI50 [nM]: 1740

Note: attention shifts to another entry.
Exam item: Recorded GI50 for CCCN1CCc2c(c3cc(OC)ccc3c3cc(OC)c(OC)cc23)C1 , please?
Marked response: 5560

###

# experimental.details: Tmax in Sprague-Dawley rat at 3 mg/kg, po by HPLC-MS method
# Assay type: ADME, organism-based
# Parameters: dose 3 mg/kg, route oral
# measurement.conditions: in vivo
parameter.measured: Tmax
# number then unit; no other words

molecule: CCCN1CCc2c(c3cc(OC)c(OC)cc3c3cc(OC)c(OC)cc23)C1
Tmax: 240 min
--
molecule: CCN1CCc2c(c3cc(OC)c(OC)cc3c3cc(OC)ccc23)C1
Tmax: 18 min

Note: attention shifts to another entry.
Exam item: Recorded Tmax for CCN1Cc2c(c3ccc(OC)cc3c3cc(OC)c(OC)cc23)C(O)C1 (stereo not drawn) , please?
Marked response: 18 min

###

# experimental.details: AUC (0 to infinity) in Sprague-Dawley rat at 1.5 mg/kg, po by HPLC-MS method
# Format: ADME, organism-based
# Design: time infinity, dose 1.5 mg/kg, route oral
# measurement.conditions: plasma
parameter.measured: AUC(0-inf) (ng·h/mL)
Quick reminder: number only, in ng·h/mL, skip the unit.

Exam item: Recorded AUC(0-inf) for COc1cc2c(cc1OC)[C@@H]1[C@@H](O)[C@@H]3CCC(=O)N3C[C@@H]1c1cc(OC)c(OC)cc1-2 , please?
Marked response: 453

###

# experimental.details: Clearance in Sprague-Dawley rat at 1.5 mg/kg, iv by HPLC-MS method
# Assay type: ADME, organism-based
# Design: dose 1.5 mg/kg, route intravenous
# measurement.conditions: in vivo
parameter.measured: clearance (L/h/kg)
Quick reminder: number only, in L/h/kg, skip the unit.

Exam item: Recorded clearance for COc1cc2c(cc1OC)[C@@H]1[C@@H](O)[C@@H]3CCC(=O)N3C[C@@H]1c1cc(OC)c(OC)cc1-2 [TYLOPHOVATINE C] , please?
Marked response: 2.26

###

# experimental.details: Tmax in Sprague-Dawley rat at 1.5 mg/kg, po by HPLC-MS method
# Format: ADME, organism-based
# Set-up: dose 1.5 mg/kg, route oral
# measurement.conditions: in vivo
parameter.measured: Tmax

Exam item: Recorded Tmax for COc1cc2c(cc1OC)[C@@H]1[C@@H](O)[C@@H]3CCC(=O)N3C[C@@H]1c1cc(OC)c(OC)cc1-2 [TYLOPHOVATINE C] , please?
Marked response: 4.3 h

###

# Tested on: A549
# experimental.details: Growth inhibition of human A549 cells
# Format: functional
Threshold-based label: GI50 under 1000 nM gives Y, GI50 not under 1000 nM gives N.

compound: CC(=O)O[C@H]1C(=O)[C@@]2(C)[C@H]([C@H](OC(=O)c3ccccc3)[C@]3(O)C[C@H](OC(=O)[C@H](O)[C@@H](NC(=O)c4ccccc4)c4ccccc4)C(C)=C1C3(C)C)[C@]1(OC(C)=O)CO[C@@H]1C[C@@H]2O [PACLITAXEL]
class.name: Y

Exam item: Problem: For the compound COc1cc2c3c(c4cc(OC)c(OC)cc4c2cc1OC)CN(CCCO)CC3 , is GI50 under 1000 nM?
Marked response: N

Exam item: Problem: For the compound CCN1CCc2c(c3cc(OC)c(OC)cc3c3cc(OC)ccc23)C1 , is GI50 under 1000 nM?
Marked response: Y

Exam item: Problem: For the compound CCCN1CCc2c(c3ccc(OC)cc3c3cc(OC)c(OC)cc23)C1 , is GI50 under 1000 nM?
Marked response: N

Exam item: Problem: For the compound COc1cc2c3c(c4cc(OC)c(OC)cc4c2cc1OC)CN(C(C)C)CC3 , is GI50 under 1000 nM?
Marked response: Y

Exam item: Problem: For the compound CCC(C)N1CCc2c(c3cc(OC)c(OC)cc3c3cc(OC)c(OC)cc23)C1 (centres undefined) , is GI50 under 1000 nM?
Marked response: Y

Exam item: Problem: For the compound COc1cc2c3c(c4cc(OC)c(OC)cc4c2cc1OC)CN(CC(C)C)CC3 , is GI50 under 1000 nM?
Marked response: N

Exam item: Problem: For the compound CCN1CCc2c(c3cc(OC)ccc3c3cc(OC)c(OC)cc23)C1 , is GI50 under 1000 nM?
Marked response: N

Exam item: Problem: For the compound COc1cc2c3c(c4cc(OC)c(OC)cc4c2cc1OC)CN(CC1OCCO1)CC3 , is GI50 under 1000 nM?
Marked response: N

Exam item: Problem: For the compound COc1cc2c3c(c4cc(OC)c(OC)cc4c2cc1OC)CN(CCC1OCCO1)CC3 , is GI50 under 1000 nM?
Marked response: N

Exam item: Problem: For the compound CCCN1CCc2c(c3cc(OC)c(OC)cc3c3c(OC)c(OC)c(OC)cc23)C1 , is GI50 under 1000 nM?
Marked response: Y

Exam item: Problem: For the compound CCCCN1CCc2c(c3cc(OC)c(OC)cc3c3cc(OC)ccc23)C1 , is GI50 under 1000 nM?
Marked response: N

Exam item: Problem: For the compound COc1cc2c3c(c4cc(OC)c(OC)c(OC)c4c2cc1OC)CCN(C(C)C)C3 , is GI50 under 1000 nM?
Marked response: Y

Exam item: Problem: For the compound COc1cc2c3c(c4cc(OC)c(OC)cc4c2cc1OC)C(O)CN(C(C)C)C3 (centres undefined) , is GI50 under 1000 nM?
Marked response: N

Exam item: Problem: For the compound CCCN1Cc2c(c3cc(OC)c(OC)cc3c3cc(OC)c(OC)cc23)C(O)C1 (centres undefined) , is GI50 under 1000 nM?
Marked response: N

Exam item: Problem: For the compound COc1cc2c3c(c4cc(OC)c(OC)cc4c2cc1OC)CN(CCCOC1CCCCO1)CC3 (centres undefined) , is GI50 under 1000 nM?
Marked response: N

Exam item: Problem: For the compound CCCCN1CCc2c(c3cc(OC)c(OC)cc3c3cc(OC)c(OC)cc23)C1 , is GI50 under 1000 nM?
Marked response: N

Exam item: Problem: For the compound CCCN1CCc2c(c3cc(OC)ccc3c3c(OC)c(OC)ccc23)C1 , is GI50 under 1000 nM?
Marked response: N
